# study target: T1, APP
# T1 construct: His-tagged; coated protein in the ELISA; also called APP-His (Acro Biosystems)
# experiment: ELISA on coated APP-His, 150 ng IgG1; None 0.092
# reported ELISA Absorbance (405 nm-570 nm); entries follow
readout: ELISA Absorbance (405 nm-570 nm)

INSERT INTO measurements (binder, readout_value) VALUES
  ('HW-25 chimeric rabbit-human IgG1 LA/LA/PG (antibody, V domains shown, Fc-silenced (L234A/L235A/P329G) IgG1, lambda; Alexa Fluor 647-labeled in single-step flow cytometry; Cluster C-1) VH: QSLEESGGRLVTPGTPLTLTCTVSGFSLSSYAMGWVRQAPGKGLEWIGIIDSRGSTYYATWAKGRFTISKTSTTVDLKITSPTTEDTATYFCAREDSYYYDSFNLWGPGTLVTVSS VL: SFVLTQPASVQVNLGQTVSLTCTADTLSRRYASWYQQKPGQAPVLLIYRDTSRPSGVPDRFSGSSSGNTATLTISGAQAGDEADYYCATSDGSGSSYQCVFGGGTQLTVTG', 0.066),
  ('HW-113 chimeric rabbit-human IgG1 LA/LA/PG (antibody, V domains shown, Fc-silenced (L234A/L235A/P329G) IgG1, lambda; Alexa Fluor 647-labeled in single-step flow cytometry) VH: QKQLVESGGGLVQPGGSLTLTCTVSGFSLNKYYMGWFRQAPGKGLEWIGVISRSGDTYYSSWAKGRFTISKASTTVDLRITSPTTEDTATYFCARDASSPGFHGDRLDLWGQGTLVTVSS VL: SFVLTQPASVQVNLGQTVSLTCTADTLSRSYASWYQQKPGQAPVLLIYRDTSRPSGVPDRFSGSSSGNTATLTISGAQAGDEADYYCATSDGIGSNYLWVFGGGTQLTVTG', 0.074),
  ('HW-8 chimeric rabbit-human IgG1 LA/LA/PG (antibody, V domains shown, Fc-silenced (L234A/L235A/P329G) IgG1, kappa; Alexa Fluor 647-labeled in single-step flow cytometry; Cluster C-45) VH: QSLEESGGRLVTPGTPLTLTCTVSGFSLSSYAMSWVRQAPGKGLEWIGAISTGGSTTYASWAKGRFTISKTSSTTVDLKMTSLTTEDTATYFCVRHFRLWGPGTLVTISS VL: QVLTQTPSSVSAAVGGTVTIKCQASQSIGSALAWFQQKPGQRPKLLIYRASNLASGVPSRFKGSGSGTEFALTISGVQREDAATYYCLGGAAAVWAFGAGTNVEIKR', 0.071);
